Biological target: UniProtKB Q12791
Sequence (Q12791 whole entry): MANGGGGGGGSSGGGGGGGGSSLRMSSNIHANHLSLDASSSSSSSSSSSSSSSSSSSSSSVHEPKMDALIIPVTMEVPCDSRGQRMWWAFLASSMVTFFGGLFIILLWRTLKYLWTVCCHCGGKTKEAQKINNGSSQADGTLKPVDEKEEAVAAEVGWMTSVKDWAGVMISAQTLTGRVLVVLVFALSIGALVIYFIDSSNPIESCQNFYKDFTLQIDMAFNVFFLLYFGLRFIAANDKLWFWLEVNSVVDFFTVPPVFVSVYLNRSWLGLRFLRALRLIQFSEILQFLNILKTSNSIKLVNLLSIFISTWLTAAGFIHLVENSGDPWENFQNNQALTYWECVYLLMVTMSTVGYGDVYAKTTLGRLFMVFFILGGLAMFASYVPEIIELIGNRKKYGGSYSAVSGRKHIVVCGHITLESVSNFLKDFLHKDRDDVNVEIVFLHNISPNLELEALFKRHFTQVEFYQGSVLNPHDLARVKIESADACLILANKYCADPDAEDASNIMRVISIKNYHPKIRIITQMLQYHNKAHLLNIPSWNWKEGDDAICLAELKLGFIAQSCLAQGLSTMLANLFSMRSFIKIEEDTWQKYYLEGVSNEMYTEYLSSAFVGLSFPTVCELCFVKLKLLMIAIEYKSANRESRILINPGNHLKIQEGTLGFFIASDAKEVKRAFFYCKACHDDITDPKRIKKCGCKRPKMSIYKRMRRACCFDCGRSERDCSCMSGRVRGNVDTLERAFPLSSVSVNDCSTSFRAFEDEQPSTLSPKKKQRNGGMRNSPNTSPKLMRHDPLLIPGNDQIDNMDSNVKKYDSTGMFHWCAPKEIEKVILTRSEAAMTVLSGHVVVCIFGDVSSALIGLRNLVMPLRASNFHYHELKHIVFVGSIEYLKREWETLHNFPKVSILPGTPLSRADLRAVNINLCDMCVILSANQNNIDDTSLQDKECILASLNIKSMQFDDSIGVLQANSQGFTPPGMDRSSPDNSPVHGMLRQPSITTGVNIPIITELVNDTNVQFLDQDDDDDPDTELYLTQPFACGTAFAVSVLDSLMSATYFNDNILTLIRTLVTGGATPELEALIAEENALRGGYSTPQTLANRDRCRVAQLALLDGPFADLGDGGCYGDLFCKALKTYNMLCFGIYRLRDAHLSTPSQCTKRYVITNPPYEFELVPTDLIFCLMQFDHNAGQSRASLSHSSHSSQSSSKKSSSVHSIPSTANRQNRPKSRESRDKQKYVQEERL
Test: BK channel opening activity, two-electrode voltage clamp in Xenopus oocytes
Settings: BK channels heterologously expressed in Xenopus oocytes; ramp -120 to +120 mV; 0.01-31.6 μM compound; ΔV at control conductance level of +100 mV; read-out: EC50 for the left-shift of the BKca-activation curve
readout-kind: pEC50
pEC50 (log units): -log10 of the concentration in mol/L.

Summary: O=C(COc1cccc(Cl)c1)Nc1cc(Cl)ccc1-c1noc(=O)[nH]1 [Compound 8] , UniProtKB Q12791, pEC50 = 5.09
